Substrate: O=P(O)(O)OC[C@H](O)CO
Experiment: coupled MDCC-PBP Pi-biosensor fluorescence assay in lipid cubic phase (monoolein)
Format: biochemical, Aquifex aeolicus
Conditions: co-substrate 3.3-5.2 mol% 16:0-P, pH 8.0, 30 °C, no technical replicates
Measured Parameter: Km (µM)
Give the quantity in µM, number only.

Observe how each entry below is paired with its result.
aaPlsY (Aquifex aeolicus VF5; R45A) (protein, full length, 192 residues, monomer, codon-optimised gene, E. coli BL21(DE3); assays: C-terminal His8 tag (p3EC); crystals: C-terminal His-eGFP removed by 3C protease; DDM-purified, reconstituted in lipid cubic phase) MKALFLVIFAYLLGSITFGEVIAKLKGVDLRNVGSGNVGATNVTAALGKKYGVLVFFLDFLKGFIPALIAVKSFGIDSWVLTFTGLASVLGHMYPVFFGFKGGKGVATALGVVFAVSPSVALFSFLVWLGIFLWKRYVSLASITATISAFLFLFVAGYPVNVLFMAIVIGALIIYRHRENINRLLTGREHRF; 50460
aaPlsY (Aquifex aeolicus VF5; N37A) (protein, full length, 192 residues, monomer, codon-optimised gene, E. coli BL21(DE3); assays: C-terminal His8 tag (p3EC); crystals: C-terminal His-eGFP removed by 3C protease; DDM-purified, reconstituted in lipid cubic phase) MKALFLVIFAYLLGSITFGEVIAKLKGVDLRNVGSGAVGATNVTRALGKKYGVLVFFLDFLKGFIPALIAVKSFGIDSWVLTFTGLASVLGHMYPVFFGFKGGKGVATALGVVFAVSPSVALFSFLVWLGIFLWKRYVSLASITATISAFLFLFVAGYPVNVLFMAIVIGALIIYRHRENINRLLTGREHRF; 3040
aaPlsY (Aquifex aeolicus VF5; T41A) (protein, full length, 192 residues, monomer, codon-optimised gene, E. coli BL21(DE3); assays: C-terminal His8 tag (p3EC); crystals: C-terminal His-eGFP removed by 3C protease; DDM-purified, reconstituted in lipid cubic phase) MKALFLVIFAYLLGSITFGEVIAKLKGVDLRNVGSGNVGAANVTRALGKKYGVLVFFLDFLKGFIPALIAVKSFGIDSWVLTFTGLASVLGHMYPVFFGFKGGKGVATALGVVFAVSPSVALFSFLVWLGIFLWKRYVSLASITATISAFLFLFVAGYPVNVLFMAIVIGALIIYRHRENINRLLTGREHRF; 430

Asked: What value of Km has been recorded for this entry: aaPlsY (Aquifex aeolicus VF5; S142A) (protein, full length, 192 residues, monomer, codon-optimised gene, E. coli BL21(DE3); assays: C-terminal His8 tag (p3EC); crystals: C-terminal His-eGFP removed by 3C protease; DDM-purified, reconstituted in lipid cubic phase) MKALFLVIFAYLLGSITFGEVIAKLKGVDLRNVGSGNVGATNVTRALGKKYGVLVFFLDFLKGFIPALIAVKSFGIDSWVLTFTGLASVLGHMYPVFFGFKGGKGVATALGVVFAVSPSVALFSFLVWLGIFLWKRYVSLAAITATISAFLFLFVAGYPVNVLFMAIVIGALIIYRHRENINRLLTGREHRF
Given back: 2890
